EC50 reference
biological target: G-protein coupled receptor 151 (Homo sapiens); assay: GPR151 activator potency, dose response, cell-based (AID 1508610); conditions: cell-based GPR151 activation reporter
The source made the active and inactive calls. The rule behind the calls is not given here.
measurementName: EC50

>>> df
                                    compound                result
 0        COc1cccc(NC(=O)n2ncc3c(C)cccc32)c1    > 28 µM (inactive)
 1     COc1cc(OC)cc(C(=O)Nc2ccc3c(c2)OCO3)c1  > 31.5 µM (inactive)
 2  CCC(C)C1N=C2c3ccccc3N=C(SCC(=O)N3CC(C)CC(C)C3)N2C1=O (configuration not stated)  > 29.4 µM (inactive)
 3  COc1cc(C2Nc3ccccc3NC3=C2C(=O)CC(c2ccc4c(c2)OCO4)C3)ccc1OC(C)=O (configuration not stated)  > 23.3 µM (inactive)
 4  CN1CCN(c2cc(-c3cn[nH]c3)ccc2NC(=O)Cc2cccc(Cl)c2)CC1               1.25 µM
 5             Oc1ccc(Nc2ncnc3ccc(I)cc23)cc1    > 28 µM (inactive)
 6          O=C(Nc1cc(C(F)(F)F)ccc1F)C1CCCC1    > 28 µM (inactive)
 7  C=CCOc1ccc(C(=O)N(Cc2nc(-c3ccc(OC)c(OC)c3)no2)C(C)C)cc1    > 28 µM (inactive)
 8          COc1ccc(C(=O)Nc2nc(C)cs2)c(OC)n1    > 28 µM (inactive)
 9  O=C1N(CN2CCC3(CC2)OCCO3)c2ccccc2C12OCCCO2    > 28 µM (inactive)
10  CC(=O)c1ccc(NC(=O)COC(=O)c2ccc3c(c2)nc(C)n3-c2ccccc2)cc1  > 28.8 µM (inactive)
11  COc1ccc(-c2ccc(/C=N/N3C(=O)C4C5C=CC(C6CC56)C4C3=O)o2)c([N+](=O)[O-])c1 (configuration not stated)    > 28 µM (inactive)
12  COc1cc(S(=O)(=O)N2CCN(c3ccc(C)c(C)c3)CC2)ccc1F    > 28 µM (inactive)
13  C=CCN1C(=O)/C(=C/c2ccc(OCC(=O)O)cc2)S/C1=N/c1nccs1    > 28 µM (inactive)
14  O=C(Nc1ccc(Br)cn1)c1ccc(N2CCCCC2)c([N+](=O)[O-])c1    > 28 µM (inactive)
15  O=C(NC1CC1)c1ccc2nc(-c3csc4ccccc34)sc2c1  > 28.1 µM (inactive)
16  COc1ccc2[nH]c(C)c(CCNCc3ccc(OC(F)(F)F)cc3)c2c1  > 21.6 µM (inactive)
17  O=C(/C=C/c1cccc([N+](=O)[O-])c1)NC1C2CC3CC(C2)CC1C3 (configuration not stated)    > 34 µM (inactive)
18      COc1ccc(CCNc2ncnc3c2oc2ccccc23)cc1OC  > 27.6 µM (inactive)
19  O=S(=O)(c1ccc(-c2csc(=Nc3cccc(Cl)c3)n2CCCO)cc1)N1CCCCC1  > 17.6 µM (inactive)
20         Cn1ncc2c(NCCc3ccc(Cl)cc3Cl)ncnc21  > 27.8 µM (inactive)

###

target: G-protein coupled receptor 151 (Homo sapiens); assay: GPR151 activator potency, dose response, cell-based (AID 1508610); conditions: cell-based GPR151 activation reporter
Activity calls are given as the source filed them. The rule behind the calls is not given here.
Labels: active, inactive

                                    compound  assignedcategory
 0  Cc1ccc(NC(=O)C(CC(=O)O)C2CCCO2)cc1 (stereo unspecified)          inactive
 1  O=C1NC(c2ccc(Cl)cc2Cl)Oc2ccccc21 (stereo unspecified)          inactive
 2  COc1ccc(OC(C)C(=O)Nc2cc(C)ccc2C)cc1 (stereo unspecified)          inactive
 3  CCn1ccnc1CN1CCN(Cc2ccc(F)cc2)C(CCO)C1 (stereo unspecified)          inactive
 4  Cc1ccc(-c2csc3nnc(SCC(=O)NC(N)=O)n23)cc1          inactive
 5  CCOC(=O)c1cc2c(c(CSc3nc4ccccc4c(=O)n3Cc3ccc4c(c3)OCO4)c1)OCOC2          inactive
 6  O=C(CCn1nc(-c2ccccc2)c2ccccc2c1=O)NCc1ccccc1          inactive
 7  O=C(Nc1ccc(Oc2cccc(Oc3ccc(NC(=O)c4ccccc4F)cc3)c2)cc1)c1ccccc1F          inactive
 8  O=C1CCCCN1c1cccc(NS(=O)(=O)c2cc(F)ccc2F)c1          inactive
 9         Cc1cc(Br)ccc1NC(=O)c1ccc(C#N)cc1F          inactive
10      COC(=O)c1cccc(NC(=O)c2cccc(Br)c2)c1C          inactive
11            O=C(O)c1ccc(OCc2ccnc(Cl)c2)cc1          inactive
12             N#Cc1ccsc1NC(=O)/C=C/c1ccccc1          inactive
13             COc1ccc(CNC(=O)CCCn2cccc2)cc1          inactive
14  O=C1CCCN1CCn1cnc2c(NCCOc3ccccc3)nc(N3CCc4ccccc4C3)nc21          inactive
15  Cn1c(=O)oc2cc(S(=O)(=O)N3CCCC(C(=O)N4CCOCC4)C3)ccc21 (stereo unspecified)          inactive
16  COc1ccc(-n2nc3c(c2NC(=O)CCC2CCCC2)CS(=O)(=O)C3)cc1          inactive
17           O=C(Oc1ccc2cc(Br)ccc2c1)c1ccco1          inactive
18  Nc1ncnc2c1ccn2[C@@H]1O[C@H](CO)[C@@H](O)[C@H]1O            active
19  C=CCOC(=O)C1=C(C)N2CCSC2=C(C#N)C1c1ccco1 (stereo unspecified)          inactive
20  Cc1ccc(C(=O)Nc2ccc([N+](=O)[O-])cc2)c(Cl)c1          inactive
21      CCOCCCNC(=O)c1cc([N+](=O)[O-])ccc1Cl          inactive
22  CCC(NS(=O)(=O)c1ccc(Cl)c([N+](=O)[O-])c1)C12CC3CC(CC(C3)C1)C2 (stereo unspecified)          inactive
23  Cc1nn(-c2ccc(Nc3ccc(NC(=O)c4cccc(F)c4)cc3)nn2)c(C)c1C          inactive
24    Cc1ccc(-c2cnn(-c3ccc(C(=O)O)cc3)c2)cc1          inactive
25  COc1cc(C2CC(=O)Nc3cc(C)c(C)cc32)cc(OC)c1OC (stereo unspecified)          inactive
26  COC(=O)c1c(NC(=O)c2cc(-c3ccc(CC(C)C)cc3)nc3ccccc23)sc(C)c1-c1ccccc1          inactive
27    CCOC(=O)N1CCc2nc(NC(=O)c3ccnn3CC)sc2C1          inactive
28  COc1cc(C2NC(=O)NC(C)=C2C(C)=O)cc(Br)c1OCc1ccccc1 (stereo unspecified)          inactive
29  Cc1cccc2c(C(=O)NCc3ccccc3)cc(-c3ccccc3)nc12          inactive
30  COc1ccc(OCc2cc(C(=O)N(C)Cc3ccncn3)no2)c(Cl)c1          inactive
31  COc1ccc(-c2nc(C(=O)N3CCN(C)CC3)sc2-c2ccc(OC)cc2)cc1          inactive
32  CC1CCN(S(=O)(=O)c2ccc(NC(=O)CSc3nc4ccccc4o3)cc2)CC1          inactive
33                 O=C(O)CCCN=C1CCc2ccccc2N1          inactive
34  CCN(CC)S(=O)(=O)c1ccc(C(=O)Nc2nnc(C(C)C)s2)cc1          inactive
35    Fc1ccc(-c2cnc(N3CCC4(CC3)OCCO4)nc2)cc1          inactive
36      NC(=O)/C(=C\c1ccco1)NC(=O)c1ccccc1Br          inactive
37             COc1ccccc1C(=O)Nc1nc2ccccc2s1          inactive
38  O=C(NCc1ccc(F)cc1)c1cc(-c2ccccc2Cl)nc2ccccc12          inactive
39   Cc1ccc(-c2c(Nc3ccc(Cl)cc3)c(=O)c2=O)cc1          inactive
40            O=C(Nc1noc2ccccc12)c1ccc(F)cc1          inactive
41             O=C(O)c1ccc(-c2nc3ccccc3s2)s1          inactive
42  O=C(COC(=O)CCS(=O)(=O)c1ccccc1Cl)NC(=O)NCc1ccco1          inactive
43    Cc1ccc(-c2nnc3sc(NC(=O)CC(C)C)nn23)cc1          inactive
44          O=C(COc1ccc(Cl)cc1Cl)Nc1ncn[nH]1          inactive
45             Cc1nn(-c2ccccc2)c(Cl)c1/C=N\O          inactive
